Source of measurements: PubChem BioAssay AID2060899

# Tested on: 565726-208-R1-J5-PDC complex spheroids, growth inhibition
# TEST DESCRIPTION: Anticancer human tumor 565726-208-R1-J5-PDC patient-derived pancreatic adenocarcinoma cell line growth inhibition [RAS]
# CONDITION LABEL: second compound 0.0949 µM; first compound 1 µM; hits give low values
MEASUREMENT TYPE: viability, T/C

compound="CC(=O)OC12COC1CC(O)C1(C)C(=O)C(O)C3=C(C)C(OC(=O)C(O)C(NC(=O)OC(C)(C)C)c4ccccc4)CC(O)(C(OC(=O)c4ccccc4)C21)C3(C)C (stereo not drawn) + CCn1c(-c2cccnc2C(C)OC)c2c3cc(ccc31)N1CCOC(CC(NC(=O)C(C(C)C)N(C)C(=O)C3(F)CCN(C(=O)C#CC(C)(C)N(C)C)CC3)C(=O)N3CCCC(N3)C(=O)OCC(C)(C)C2)C1" measurement_type="viability, T/C" recorded_measurement=15.3%
compound="CC(C)NCC(C(=O)N1CCN(c2ncnc3c2C(C)CC3O)CC1)c1ccc(Cl)cc1 (stereo not drawn) + CCn1c(-c2cccnc2C(C)OC)c2c3cc(ccc31)N1CCOC(CC(NC(=O)C(C(C)C)N(C)C(=O)C3(F)CCN(C(=O)C#CC(C)(C)N(C)C)CC3)C(=O)N3CCCC(N3)C(=O)OCC(C)(C)C2)C1" measurement_type="viability, T/C" recorded_measurement=86.5%
compound="C[C@@H](NC(=O)c1ncnc(N)c1Cl)c1ncc(C(=O)Nc2cc(C(F)(F)F)c(Cl)cn2)s1 + CCn1c(-c2cccnc2C(C)OC)c2c3cc(ccc31)N1CCOC(CC(NC(=O)C(C(C)C)N(C)C(=O)C3(F)CCN(C(=O)C#CC(C)(C)N(C)C)CC3)C(=O)N3CCCC(N3)C(=O)OCC(C)(C)C2)C1" measurement_type="viability, T/C" recorded_measurement=108%

====

# System: 565726-208-R1-J5-PDC complex spheroids, growth inhibition
# TEST DESCRIPTION: Anticancer human tumor 565726-208-R1-J5-PDC cell line growth inhibition [RAS];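 also: spheroids exposed to compounds for seven days before readout; 100% = DMSO vehicle control viability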
# CONDITION LABEL: second compound 0.003 µM; first compound 0.0316 µM; hits give low values
compounds and their reported viability, T/C
MEASUREMENT TYPE: viability, T/C (%)

compound="C=CC(=O)N1CCN(c2nc(OCC3CCCN3C)nc3c(F)c(-c4nc(N)cc(C)c4C(F)(F)F)c(Cl)cc23)C(C)C1 (stereo not given) + CCn1c(-c2cccnc2C(C)OC)c2c3cc(ccc31)N1CCOC(CC(NC(=O)C(C(C)C)N(C)C(=O)C3(F)CCN(C(=O)C#CC(C)(C)N(C)C)CC3)C(=O)N3CCCC(N3)C(=O)OCC(C)(C)C2)C1" units_text=% recorded_measurement=105
compound="CC1(O)CCCC1n1c(=O)c(C(F)F)cc2cnc(NC3CCN(S(C)(=O)=O)CC3)nc21 (stereo not given) + CCn1c(-c2cccnc2C(C)OC)c2c3cc(ccc31)N1CCOC(CC(NC(=O)C(C(C)C)N(C)C(=O)C3(F)CCN(C(=O)C#CC(C)(C)N(C)C)CC3)C(=O)N3CCCC(N3)C(=O)OCC(C)(C)C2)C1" units_text=% recorded_measurement=92.6
compound="O=C(c1ccc(F)c(F)c1Nc1ccc(I)cc1F)N1CC(O)([C@@H]2CCCCN2)C1 + CCn1c(-c2cc(N3CCN(C)CC3)cnc2C(C)OC)c2c3cc(ccc31)-c1csc(n1)CC(NC(=O)C1CC1C)C(=O)N1CCCC(N1)C(=O)OCC(C)(C)C2" units_text=% recorded_measurement=40.7
compound="NC1c2ccccc2OC12CCN(c1cnc3c(N4CCCc5ncccc54)n[nH]c3n1)CC2 (stereo not given) + CCn1c(-c2cccnc2C(C)OC)c2c3cc(ccc31)N1CCOC(CC(NC(=O)C(C(C)C)N(C)C(=O)C3(F)CCN(C(=O)C#CC(C)(C)N(C)C)CC3)C(=O)N3CCCC(N3)C(=O)OCC(C)(C)C2)C1" units_text=% recorded_measurement=82.6
compound="CCN1CCN(Cc2ccc(Nc3ncc(F)c(-c4cc(F)c5nc(C)n(C(C)C)c5c4)n3)nc2)CC1 + CCn1c(-c2cccnc2C(C)OC)c2c3cc(ccc31)N1CCOC(CC(NC(=O)C(C(C)C)N(C)C(=O)C3(F)CCN(C(=O)C#CC(C)(C)N(C)C)CC3)C(=O)N3CCCC(N3)C(=O)OCC(C)(C)C2)C1" units_text=% recorded_measurement=84.3
